Tested on: hedgehog, isoform A (Drosophila melanogaster)
methodDescription: Hh protein inhibition, biochemical readout – plate reader, single concentration, primary screen (AID 588832);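 further: 0% = neutral control wells and 100% = positive control wells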
conditionsUsed: Biochemical plate reader assay, at 30.3 µM, hits give high values
Screen size: about 8,000 compounds; fewer than 10 were called active. These entries were drawn from the full list.
experimentalReadout: inhibition (%)
Write the number in % without appending the unit.

Sample answers from the record:
[
  {
    "compound": "Cc1ccc(NC(=O)C2CCCN(S(=O)(=O)c3ccc4[nH]c(=O)ccc4c3)C2)cc1C (stereo unspecified)",
    "studyTarget": "hedgehog, isoform A (Drosophila melanogaster)",
    "val": 0
  },
  {
    "compound": "COc1ccc2c(c1OC)C(=O)N1C2SC[C@H]1C(=O)NC1CCCCC1 (stereo partly specified)",
    "studyTarget": "hedgehog, isoform A (Drosophila melanogaster)",
    "val": 4.89
  }
]

Ask: Look up inhibition with hedgehog, isoform A (Drosophila melanogaster) for this compound: Cc1cc(C)cc(N2CC(c3nc4ccccc4n3C)CC2=O)c1 (stereo unspecified)
Result: 5.06

Ask: Look up inhibition with hedgehog, isoform A (Drosophila melanogaster) for this compound: `COc1ccc(N2CCN(C(=O)c3ccc(CS(=O)(=O)c4ccccc4C)o3)CC2)cc1`
Result: 7.34

Ask: Look up inhibition with hedgehog, isoform A (Drosophila melanogaster) for this compound: `Cc1ccc2c(c1)N(C(=O)CCC(=O)NCCCN1CCN(C)CC1)CCO2`
Result: 5.23

Ask: Look up inhibition with hedgehog, isoform A (Drosophila melanogaster) for this compound: `Cc1ccc2c(c1)N(CC(=O)NC1CCCC1)C(=O)c1cccnc1O2`
Result: 16.7

Ask: Look up inhibition with hedgehog, isoform A (Drosophila melanogaster) for this compound: `COc1ccc2[nH]c3c(c2c1)CCN1C(=O)N([C@@H](C)C(=O)NCc2ccc(C)cc2)C(=O)[C@]31C`
Result: 0

Ask: Look up inhibition with hedgehog, isoform A (Drosophila melanogaster) for this compound: Cc1oc(-c2ccc(Cl)cc2)nc1CS(=O)CC(=O)NCc1cccs1 (stereo unspecified)
Result: 5.23
